tested on: SW-620 colon; assay: NCI-60 one-dose screen, 48 h (100 = growth as untreated, 0 = no growth, -100 = all killed); details: 10 µM unless noted
About 83,000 compounds went through this panel and 20% of them were active in at least one assay; those are over-represented in the sample as a whole.
METRIC NAME: growth (%)
Please respond with the number in % and leave the unit unwritten.

Examples with answers:
| COMPOUND | METRIC NAME | NUMBER |
| --- | --- | --- |
| CN(C)CCCN=c1cc2c(=O)n(CCCN(C)C)c(=O)c3c(NCCCN(C)C)cc4c(O)n(CCCN(C)C)c(=O)c1c4c3-2 | growth | -14.6 |
| COc1cccc(/C=N\NC(=O)c2ccncc2)c1O | growth | 62.5 |
| COc1ccc2c(c1)c(CC(=O)[Se]C)c(C)n2C(=O)c1ccc(Cl)cc1 | growth | 29.9 |

The compound CCCc1n(Cc2ccc3ccccc3c2)cc[n+]1Cc1ccc2ccccc2c1 showed growth equal to 8.13

The compound CCOC(=O)C1C(=O)NC(C(=O)OCC)(C(=O)OCC)C1CC (stereo unspecified) showed growth equal to 115

The compound N#Cc1c(NC(=O)c2ccco2)[n+]([O-])c2ccccc2[n+]1[O-] showed growth equal to 107

Where do these numbers come from? They come from PubChem BioAssay (NCI).
